test: in vitro; settings: human
Reported IC50 at 48 h values for the following compounds.
Answer format: numeric, µM implied, no suffix.

Suppose we examine the compound CCCCCCCCCCCCO[C@H]1C[C@H](O)[C@@H](O)CO1 [Compound 7] ; what IC50 at 48 h value has been reported?
100

Try CCCCCCCCCCCCO[C@@H]1C[C@@H](O)[C@H](O)[C@@H](C)O1 [Compound 9] next.
50

Try CCCCCCCCCCCCO[C@H]1C[C@H](O)[C@H](O)[C@H](C)O1 [Compound 4] next.
50

Try CCCCCCCCCCCCO[C@@H]1O[C@H](C)C[C@H](O)[C@H]1O [Compound 12] next.
50

Try CCCCCCCCCCCCO[C@H]1O[C@H](C)C[C@H](O)[C@H]1O [Compound 11] next.
50

Try CCCCCCCCCCCC[C@H]1C[C@H](O)[C@@H](O)[C@H](C)O1 [Compound 3] next.
100

Try CCCCCCCCCCCC[C@@H]1C[C@@H](O)[C@H](O)CO1 [Compound 21] next.
100

---

Reported MBC values for the following molecules.
test system: B. cereus ATCC 14579; test: microbe, parasite or virus in culture; type: cell-based, Bacillus cereus; settings: Bacillus cereus, ATCC14579
Answer format: numeric, µg/mL implied, no suffix.

Below, 2 molecules whose answers are already recorded.
INSERT INTO assay_data (molecule, uom, meas_value) VALUES
  ('CCCCCCCCCCCCO[C@@H]1C[C@@H](O)[C@H](O)CO1 [Compound 17]', 'µg/mL', 16),
  ('CCCCCCCCCCCCS[C@H]1C[C@@H](O)[C@H](O)CO1 [Compound 20]', 'µg/mL', 32);

Which MBC is reported with B. cereus ATCC 14579 for this entry: CCCCCCCCCCCCO[C@H]1C[C@H](O)[C@@H](O)[C@H](C)O1 [Compound 1] ?
16

Try CCCCCCCCCCCCO[C@@H]1O[C@@H](C)[C@H](O)[C@@H](O)[C@H]1O [Compound 6] next.
32

Try CCCCCCCCCCCCO[C@@H]1C[C@@H](O)[C@H](O)[C@@H](CO)O1 [Compound 13] next.
128

Try CCCCCCCCCCCCO[C@H]1C[C@H](O)[C@@H](O)CO1 [Compound 7] next.
16

Try CCCCCCCCCCCC[C@@H]1C[C@@H](O)[C@H](O)[C@@H](C)O1 [Compound 10] next.
32

---

test system: E. faecalis (ATCC 29212); assay: microbe, parasite or virus in culture; format: cell-based; conditions: Enterococcus faecalis, ATCC29212; 16 h at 37 °C; read-out: MIC E. faecalis
Reported MIC values for the following molecules.

Below, 5 molecules whose answers are already recorded.
INSERT INTO assay_data (substance_smiles, meas_value) VALUES
  ('CCCCCCCCCCCCO[C@@H]1O[C@H](C)C[C@H](O)[C@H]1O', '> 405 µM'),
  ('CCCCCCCCCCCCO[C@H]1C[C@H](O)[C@H](O)[C@H](C)O1', '> 50 µM'),
  ('CCCCCCCCCCCC[C@H]1C[C@H](O)[C@@H](O)[C@H](C)O1', '> 54 µM'),
  ('CCCCCCCCCCCCS[C@H]1C[C@@H](O)[C@H](O)CO1', '> 50 µM'),
  ('CCCCCCCCCCCCO[C@@H]1C[C@@H](O)[C@H](O)CO1', '> 52 µM');

Which MIC is reported with E. faecalis (ATCC 29212) for this entry: CCCCCCCCCCCC[C@@H]1C[C@@H](O)[C@H](O)CO1 ?
56 µM

Try CCCCCCCCCCCCO[C@H]1O[C@H](C)[C@@H](O)[C@H](O)[C@@H]1O next.
> 48 µM

Try CCCCCCCCCCCC[C@@H]1C[C@@H](O)[C@H](O)[C@@H](C)O1 next.
> 54 µM

Try CCCCCCCCCCCCO[C@@H]1C[C@H](O)[C@@H](O)CO1 next.
52 µM

Try CCCCCCCCCCCCO[C@H]1C[C@H](O)[C@@H](O)CO1 next.
52 µM

Try CCCCCCCCCCCCO[C@@H]1O[C@@H](C)[C@H](O)[C@@H](O)[C@H]1O next.
48 µM
